procedure details: NCI Yeast Anticancer Drug Screen. Data for the cln2 rad14 strain (AID 165);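 also: 0% = growth equal to vehicle treated cultures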
condition notes: S. cerevisiae cln2 rad14 strain, at 50.0 µM, hits give high values
Compounds without any hit were thinned out: in the full panel of roughly 79,000, 15% have a hit. Activity calls are given as the source filed them. Rule as the data show it: active = growth inhibition above about 70%; inactive = the rest.
growth inhibition: recorded values

Problem: Recorded growth inhibition of CC(C)=CCC(OC(=O)CC(C)C)C1=CC(=O)c2c(O)ccc(O)c2C1=O (stereo not drawn) , please.
Solution: 82.2% (active)

Problem: Recorded growth inhibition of CN(C)C(=S)/N=c1\ss/c(=N\C(=S)N(C)C)n1-c1cccc(Cl)c1 , please.
Solution: 80.8% (active)

Problem: Recorded growth inhibition of CC1=CC(=O)CC(c2ccccc2)C1 (stereo not drawn) , please.
Solution: 92.5% (active)

Continuing:
Problem: Recorded growth inhibition of CC(=O)OC1=C(Br)CCc2ccccc21 , please.
Solution: 86.3% (active)

Problem: Recorded growth inhibition of Cc1ccc(O)c(Cc2cccc(Cl)c2)c1 , please.
Solution: 99% (active)

Problem: Recorded growth inhibition of Oc1c(N(Cc2ccccc2)Cc2ccccc2)ccc2cccnc12 , please.
Solution: 96.2% (active)

###

procedure details: NCI Yeast Anticancer Drug Screen. Data for the cln2 rad14 strain (AID 165);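 also: 0% = growth equal to vehicle treated cultures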
condition notes: S. cerevisiae cln2 rad14 strain, at 5.0 µM (retest, dose inferred, filed as 0.5), hits give high values
This is part of a sample that, as a whole, favours compounds with a hit. Of some 79,000 tested, about 15% had one in any assay.
Lab note: anything with growth inhibition at or over 10% counts as YES; the rest go in NO.

Problem: Record N=Nc1c(OC(=O)Nc2ccccc2)[nH]c2ccccc12 ; criterion: growth inhibition no lower than 10%. Met?
Solution: NO

Continuing:
Problem: Record C=C(CN1CCOCC1)C(=O)c1ccccc1 ; criterion: growth inhibition no lower than 10%. Met?
Solution: NO

Problem: Record COc1ccccc1N=Nc1c(N)nc(N)[nH]c1=O ; criterion: growth inhibition no lower than 10%. Met?
Solution: NO

Problem: Record CC(=O)OC1SC(C)(C)n2c1nc1ccccc1c2=O (stereo unspecified) ; criterion: growth inhibition no lower than 10%. Met?
Solution: NO

Problem: Record COc1ccc(C2CC(=O)CC(=O)C2)cc1 ; criterion: growth inhibition no lower than 10%. Met?
Solution: NO

Problem: Record Cn1c(=S)c2[nH]c(SCCN3CCCC3)nc2n(C)c1=O ; criterion: growth inhibition no lower than 10%. Met?
Solution: YES

###

procedure details: NCI Yeast Anticancer Drug Screen. Data for the sgs1 mgt1 strain (AID 161);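 also: 0% = growth of cultures given vehicle only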
condition notes: S. cerevisiae sgs1 mgt1 strain, at 50.0 µM (retest, dose inferred, filed as 5.0), hits give high values
This is part of a sample that, as a whole, favours compounds with a hit. Of some 79,000 tested, about 15% had one in any assay.
growth inhibition: recorded values
Just the number in %, nothing appended.

Problem: Recorded growth inhibition of Cc1nc(Cl)nc(N)c1[N+](=O)[O-] , please.
Solution: 30

Problem: Recorded growth inhibition of CC(=O)c1nc2ccccc2n1C(C)C(=O)c1ccccc1 (stereo not drawn) , please.
Solution: 74

Problem: Recorded growth inhibition of Cc1ccccc1N=Nc1ccccc1 , please.
Solution: 99

Problem: Recorded growth inhibition of CCN(CC)C(C)(C)C(=O)/C=C/c1ccc(Cl)c(Cl)c1 , please.
Solution: 97

Problem: Recorded growth inhibition of CCCCCCN(CCCCCC)CCCC(O)c1cccc2ccccc12 (stereo not drawn) , please.
Solution: 1

Problem: Recorded growth inhibition of NNC(=O)c1ccc(N)cc1O , please.
Solution: -3

Problem: Recorded growth inhibition of CCOC(=O)c1c(N)c(=O)n2c3c(cccc13)CC2 , please.
Solution: 99

Problem: Recorded growth inhibition of Cc1ccc(S(=O)(=O)CC2(Br)Cc3ccccc3C2=O)cc1 (stereo not drawn) , please.
Solution: 99

Problem: Recorded growth inhibition of Cc1ccc(C(=O)/C=C/c2ccco2)c(C)c1 , please.
Solution: 15

Problem: Recorded growth inhibition of Cn1c(=O)c2c3oc(=O)cc(O)c3c(=O)n3c4ccccc4n(c1=O)c23 , please.
Solution: 86

Continuing:
Problem: Recorded growth inhibition of COc1ccccc1C1C2=C(COC2=O)OC(C)(C)Oc2cc3c(cc21)OCO3 (stereo not drawn) , please.
Solution: 96

Problem: Recorded growth inhibition of O/N=C1/CC2CCCc3ccc4cccc1c4c32 (stereo not drawn) , please.
Solution: 15

Problem: Recorded growth inhibition of Nc1ccc(Oc2ccc(-c3ccccc3)cc2)c(Cl)c1 , please.
Solution: 98

Problem: Recorded growth inhibition of COC1C(N)C(OC2C(Oc3cccc4c(O)c5c(=O)oc6ccc(C)c7c(=O)oc(c34)c5c67)OC(C)C(O)C2(C)O)OC(C)C1O (stereo not drawn) , please.
Solution: 32

Problem: Recorded growth inhibition of COC(=O)c1c2c(cc3c1CC1(Cc4cc5c(c(C)c4C1)CCC5)C3)CCC2 (stereo not drawn) , please.
Solution: 12

Problem: Recorded growth inhibition of O=C1Nc2c(Cl)cc(Cl)cc2/C1=N/N=C/c1ccccc1O , please.
Solution: 41

Problem: Recorded growth inhibition of Nc1ccc(C(=O)Nc2ccc(C(=O)Nc3ccc(/C=C/c4ccc(NC(=O)c5ccc(N)cc5)cc4S(=O)(=O)O)c(S(=O)(=O)O)c3)cc2)cc1 , please.
Solution: 78

Problem: Recorded growth inhibition of N#Cc1c(-c2ccc(Cl)cc2)c2c(n(C3OC(CO)C(O)C(O)C3O)c1=S)CCCC2 (stereo not drawn) , please.
Solution: 96

###

procedure details: NCI Yeast Anticancer Drug Screen. Data for the bub3 strain (AID 167)
condition notes: S. cerevisiae bub3 mutant strain, at 5.0 µM (retest, dose inferred, filed as 0.5), hits give high values
Compounds without any hit were thinned out: in the full panel of roughly 79,000, 15% have a hit.
parameter measured: growth inhibition (%)
Just the number in %, nothing appended.

Problem: Recorded growth inhibition of O=C1CCC(Cc2ccccc2Br)C(=O)N1 (configuration not stated) , please.
Solution: -4

Continuing:
Problem: Recorded growth inhibition of O=Cc1ccc(/C=N\Nc2ccccc2)cc1 , please.
Solution: -1

Problem: Recorded growth inhibition of CC1(c2ccc3ccccc3c2)C(C#N)(C#N)C1(C#N)C#N , please.
Solution: 96

###

procedure details: NCI Yeast Anticancer Drug Screen. Data for the sgs1 mgt1 strain (AID 161);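 also: 0% = growth of cultures given vehicle only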
condition notes: S. cerevisiae sgs1 mgt1 strain, at 50.0 µM, hits give high values
This is part of a sample that, as a whole, favours compounds with a hit. Of some 79,000 tested, about 15% had one in any assay.
growth inhibition: recorded values
Just the number in %, nothing appended.

Problem: Recorded growth inhibition of OCCSC(=S)Nc1ccc(Cl)c(Cl)c1 , please.
Solution: 99.8

Problem: Recorded growth inhibition of CC1=NOC(=O)/C1=C/C=C/c1ccccc1 , please.
Solution: 90.3

Problem: Recorded growth inhibition of Oc1ccc(C2CCCCC2)c(O)c1 , please.
Solution: 66

Problem: Recorded growth inhibition of CC(=O)Oc1c2ccccc2c(C)c2c1ccc1ccccc12 , please.
Solution: 96

Problem: Recorded growth inhibition of C#CCOC(=O)Nc1nc2ccc(SC#N)cc2s1 , please.
Solution: 97.7

Problem: Recorded growth inhibition of O=C([O-])c1ccccc1[I+]c1ccc(C2CCCCC2)cc1 , please.
Solution: 89.8

Here's the next entry for you.
Problem: Recorded growth inhibition of COc1ccc2c(c1)OC(OC)(c1ccccc1)C(O)(OC)C2=O (stereo not given) , please.
Solution: 59

###

growth inhibition: recorded values
procedure details: NCI Yeast Anticancer Drug Screen. Data for the mec2-1 strain (AID 157)
condition notes: S. cerevisiae mec2-1 strain, at 5.0 µM (retest, dose inferred, filed as 0.5), hits give high values
Compounds without any hit were thinned out: in the full panel of roughly 79,000, 15% have a hit.
Just the number in %, nothing appended.

Record excerpt, results attached:
Problem: Recorded growth inhibition of C#C[C@]1(OC(C)=O)CC[C@H]2[C@@H]3CCC4=CC(=O)CC[C@@H]4[C@H]3CC[C@@]21C , please.
Solution: 7

Problem: Recorded growth inhibition of Cc1ccc(S(=O)(=O)N/N=C2/CCC3(O)CC2(C)CCC2[C@H]3CC2(C)C)cc1 (stereo partly specified) , please.
Solution: -7

Problem: Recorded growth inhibition of COc1ccc2ccc(OC)c(C=O)c2c1 , please.
Solution: -50

Problem: Recorded growth inhibition of CCC[CH2][Ge]([CH2]CCC)([CH2]CCC)[O]C(=O)C(OC(C)=O)c1ccccc1 (stereo unspecified) , please.
Solution: 85

Problem: Recorded growth inhibition of CCC(CO)Nc1nc2ccc(Br)cc2c2ccccc12 (stereo unspecified) , please.
Solution: 4

Continuing:
Problem: Recorded growth inhibition of C1CCN(c2nc(N3CCOCC3)c3[nH]c(N4CCCCC4)nc3n2)CC1 , please.
Solution: 5
